Hi there, I'd appreciate the recorded Population Mitochondria Different-Phenotype (%) for every entry that follows.
- Test system: Fibroblast
- Test: Multiplex assay against human fibroblast
- Assay type: toxicity, cell-based
- Condition summary: 12 h, 10 µM, compound concentration 10 uM, replicate 1
Record the result as number plus unit.

// solved cases for Population Mitochondria Different-Phenotype (%) follow
>>> reported_result("Cc1ccc(NC(=O)Nc2cc(C(F)(F)F)ccc2F)cc1Nc1ccc2c(c1)NC(=O)/C2=C\\c1ccc[nH]1")
"3%"
>>> reported_result("C=CC(=O)Nc1cc(-n2c(=O)ccc3cnc4ccc(-c5ccc(NS(C)(=O)=O)cc5)cc4c32)ccc1C")
"13%"
>>> reported_result("CN1C(=O)[C@@H](NC(=O)c2cc3ccccc3[nH]2)N=C(c2ccccc2)c2ccccc21 [DEVAZEPIDE]")
"15%"
>>> reported_result("Cc1ccc(S(=O)(=O)NC2c3ccccc3Oc3ccccc32)cc1")
"54%"
>>> reported_result("CCCCN(CC)c1nc(C)nc2c1c(C)cn2-c1c(C)cc(C)cc1C.Cl")
"16%"
>>> reported_result("Cc1c(P(=S)(c2ccccc2)c2ccccc2)n2ccccc2[n+]1C/C=C/c1ccccc1.[Br-]")
"64%"
>>> reported_result("CCCCCNC(=N)N/N=C/c1c[nH]c2ccc(OC)cc12.O=C(O)/C=C\\C(=O)O [TEGASEROD MALEATE]")
"50%"
>>> reported_result("CC[C@@H]1C(=O)N(C)c2cnc(Nc3ccc(C(=O)NC4CCN(C)CC4)cc3OC)nc2N1C1CCCC1 [BI-2536]")
"7%"

Give one value of Population Mitochondria Different-Phenotype (%) per listed compound.
1. N#CCNC(=O)c1ccc(-c2ccnc(Nc3ccc(N4CCOCC4)cc3)n2)cc1 [MOMELOTINIB]
2. CC(Cc1ccc(O)c(O)c1)C(C)Cc1ccc(O)c(O)c1 (stereo not drawn) [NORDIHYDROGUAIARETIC ACID]
3. N#Cc1cccc(C(=O)Nc2cc(-c3ccccc3)nn2-c2ccccc2)c1

1: 10%; 2: 6%; 3: 15%

Can you give me Population Mitochondria Different-Phenotype (%) for all of these, one by one?
1. COc1ccccc1-c1cc(Nc2cccc(CS(N)(=O)=O)c2)ncn1
2. CC[C@H](Nc1ncnc2[nH]cnc12)c1nc2cccc(F)c2c(=O)n1-c1ccccc1 [IDELALISIB]

4%
0%

====

- System: Fibroblast
- Test: Incucyte cell viability with human fibroblast; further: filed as whole numbers so only -1 and 0 and 1 occur
- Type: toxicity, cell-based
- Condition summary: 12 h, 10 µM, compound concentration 10 uM, replicate number 1, timepoint 12 hours
Answer each item with its documented Growth Rate.
Answers are plain numbers.

Study these solved cases before continuing.
>>> reported_result("CCCCN(Cc1ccccc1)C(=O)c1ccc(S(=O)(=O)Nc2ccccc2)cc1")
1
>>> reported_result("CCOc1ccn(-c2ccc(F)cc2)c(=O)c1C(=O)Nc1ccc(Oc2ccnc(N)c2Cl)c(F)c1 [BMS-777607]")
0
>>> reported_result("CC(C)(C)c1ccc(C(=O)Nc2cn3cc(-n4ccnc4)ccc3n2)cc1.Cl.Cl")
1
>>> reported_result("C=CC(=O)Nc1cc(-n2c(=O)ccc3cnc4ccc(-c5ccc(NS(C)(=O)=O)cc5)cc4c32)ccc1C")
1
>>> reported_result("Cc1cn2cc(CC(=O)N3CCC4(CC3)CN(Cc3ccc(-n5nccn5)cc3Cl)C4)nc2s1")
0
>>> reported_result("CN(c1cc(C(F)(F)F)nc(OCCC(=O)O)n1)c1cccc2c1CCC2")
1
>>> reported_result("Cl.Cn1c2c(c3ccc(Cl)c(Cl)c31)C(C#N)C1(CCNCC1)NC2=O (stereo unspecified)")
0
>>> reported_result("CCN(CCO)CCCOc1ccc2c(Nc3cc(CC(=O)Nc4cccc(F)c4)[nH]n3)ncnc2c1 [DEFOSBARASERTIB]")
0

Give Growth Rate for each listed item.
1. CC[C@@H]1C(=O)N(C)c2cnc(Nc3ccc(C(=O)N[C@H]4CC[C@H](N5CCN(CC6CC6)CC5)CC4)cc3OC)nc2N1C(C)C [VOLASERTIB]
2. Cc1c(Nc2ccc(S(=O)(=O)N3CCN(C)CC3)cc2F)nc2ccc(-c3cnn(C4CC4)c3)cn2c1=O
3. COc1cc(C)c(Sc2cnc(NC(=O)c3ccc(CNC(C)C(C)(C)C)cc3)s2)cc1C(=O)N1CCN(C(C)=O)CC1 (stereo unspecified)

1. 0
2. 1
3. 0
